biological target: 5-hydroxytryptamine receptor 1D (Homo sapiens)
Sequence (P28221 whole entry): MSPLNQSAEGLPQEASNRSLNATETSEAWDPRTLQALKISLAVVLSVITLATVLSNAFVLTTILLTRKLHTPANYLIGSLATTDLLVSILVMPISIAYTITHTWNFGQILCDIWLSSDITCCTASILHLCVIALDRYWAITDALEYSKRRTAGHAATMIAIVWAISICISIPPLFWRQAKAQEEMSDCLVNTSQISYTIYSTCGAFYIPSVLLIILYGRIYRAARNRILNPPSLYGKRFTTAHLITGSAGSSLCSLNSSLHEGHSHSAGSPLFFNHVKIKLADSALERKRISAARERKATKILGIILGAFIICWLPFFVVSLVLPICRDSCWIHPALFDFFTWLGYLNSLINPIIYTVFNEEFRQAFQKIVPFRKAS
reported.endpoint: pKi
When answering, recall that pKi equals minus log10 of the concentration in mol/L, and write that number alone.

input: Need pKi of COC[C@@H]1CCCN1CCc1c[nH]c2ccc(-c3cccs3)cc12 , thanks.
output: 8.74

input: Now the same for CN(C)CCc1c[nH]c2ccc(-c3ccsc3)cc12
output: 9.30

input: Now the same for CC1CCC(C)N1CCc1c[nH]c2ccc(-c3cccs3)cc12 (stereo unspecified)
output: 8.60

input: Now the same for OC[C@@H]1CCCN1CCc1c[nH]c2ccc(-c3cccs3)cc12
output: 8.09

input: Now the same for C1=CCN(CCc2c[nH]c3ccc(-c4cccs4)cc23)C1
output: 8.35

input: Now the same for CN(C)CCc1c[nH]c2ccc(-c3ccc(Cl)s3)cc12
output: 8.12

input: Now the same for Cc1ccc(-c2ccc3[nH]cc(CCN(C)C)c3c2)s1
output: 8.49

input: Now the same for Clc1ccc(-c2ccc3[nH]cc(CCN4CCCC4)c3c2)s1
output: 7.51

input: Now the same for NCCc1c[nH]c2ccc(-c3cccs3)cc12
output: 8.77

input: Now the same for CN(C)CCc1c[nH]c2ccc(-c3cccs3)cc12
output: 9.15

input: Now the same for c1csc(-c2ccc3[nH]cc(CCN4CCCC4)c3c2)c1
output: 7.72
